Target or test system: T1, canine OX40L, full length membrane form, expressed on HEK293 cells (canine)
T1 chain: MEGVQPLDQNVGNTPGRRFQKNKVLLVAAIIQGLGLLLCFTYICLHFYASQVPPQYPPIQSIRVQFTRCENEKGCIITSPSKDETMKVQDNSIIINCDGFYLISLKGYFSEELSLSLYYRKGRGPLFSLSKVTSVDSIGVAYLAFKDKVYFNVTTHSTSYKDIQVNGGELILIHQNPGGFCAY
Assay details: cell-based or functional assay
Property label: % Signal Inhibition Rep3 (%)

Binder	Property label	Value measured
PMX095 (antibody, V domains shown) VH: AVQLVESGGDLVRPGGSLRLSCVASGFTFSSYHMNWVRQAPGKGLQWVAFINSGGSSTTYADVVRGRFTISRDYAKNTLFLQMNSLRAEDTAVYYCAIGSIWTHFDYWGQGTLVTVSS VL: SFVLTQLPSVSVTLRQTARITCGGDIIGSKNVYWYQQRLGQAPVLILYRDTNRPTGIPERFSGASSGNTATLTISGALAEDEADYYCQVWDNSNKAMFGGGTHLTVL	% Signal Inhibition Rep3	57.3
PMX086 (antibody, V domains shown) VH: EVQLVESGGDLVKPGGSLRLSCVASGFTFSSYHMSWVRQAPGKGLQWVAFINSAESSTTYADAVKGRFTISRDNAKNTLYLQMNSLRAEDTAVYYCAGGYIWTHFDYWGQGTLVTVSS VL: SYVLTQLPSVSVTLRQTARITCGGDIIGSKSVYWYQQNLGQAPVLIIYRDTNRPTGIPERFSGASSGNTATLTISGALAEDEADYYCQVWDSSTSVFGGGTHLTVL	% Signal Inhibition Rep3	14
